Attribution: patent US20230027295A1

biological target: Human Factor XIa (Homo sapiens, UniProt P03951)
Sequence (P03951 388-625 limits assumed): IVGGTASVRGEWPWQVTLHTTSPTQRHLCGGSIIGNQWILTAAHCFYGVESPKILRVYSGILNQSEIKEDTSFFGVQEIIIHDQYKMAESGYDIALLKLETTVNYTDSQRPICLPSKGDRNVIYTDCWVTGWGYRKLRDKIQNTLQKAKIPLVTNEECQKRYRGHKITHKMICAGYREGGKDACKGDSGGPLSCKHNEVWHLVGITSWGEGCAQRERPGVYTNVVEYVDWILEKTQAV
Sequence (P03951 19-387 partner limits assumed): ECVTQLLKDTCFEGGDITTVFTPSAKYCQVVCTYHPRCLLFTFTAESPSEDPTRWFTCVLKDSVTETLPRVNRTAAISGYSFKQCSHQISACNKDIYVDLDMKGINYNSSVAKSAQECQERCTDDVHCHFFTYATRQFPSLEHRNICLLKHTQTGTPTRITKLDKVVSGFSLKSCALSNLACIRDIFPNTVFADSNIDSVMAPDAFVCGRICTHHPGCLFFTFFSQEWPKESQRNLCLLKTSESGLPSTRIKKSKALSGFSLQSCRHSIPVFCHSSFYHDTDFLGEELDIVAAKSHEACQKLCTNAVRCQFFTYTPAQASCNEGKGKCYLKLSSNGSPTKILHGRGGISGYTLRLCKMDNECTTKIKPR
Mark true only when IC50 stays strictly below 20 nM. Values equal to the cut-off are false.

-- ask I wonder whether "CC(=O)c1ccc(Cl)cc1-c1cc(=O)n([C@@H](Cc2ccccc2)C(=O)Nc2ccc(C(=O)O)cc2)nc1OC(F)F" has IC50 below 20 nM. Can you tell?
-- reply true

-- ask Bench note: check whether "CCOc1nn([C@@H](Cc2ccccc2)C(=O)Nc2ccc(C(=O)O)cc2)c(=O)cc1-c1cc(Cl)ccc1C(C)=O" shows IC50 below 20 nM
-- reply true

-- ask hey, is IC50 for "COc1nn([C@@H](Cc2ccccc2)C(=O)Nc2ccc3[nH]c(C(=O)O)cc3c2)c(=O)cc1-c1cc(Cl)ccc1C(C)=O" lower than 20 nM or not?
-- reply true

-- ask Check if IC50 falls below 20 nM for "CC(=O)c1ccc(Cl)cc1-c1cc(=O)n([C@@H](Cc2ccccc2)C(=O)Nc2ccc(C(=O)O)cc2)nc1O" .
-- reply false

-- ask Please check: IC50 for COc1nn(C(Cc2ccc(N3CCN(C(C)C)CC3=O)cc2)C(=O)Nc2ccc(C(=O)O)cc2)c(=O)cc1-c1cc(Cl)ccc1C(C)=O (stereo not drawn) , strictly under 20 nM or not?
-- reply false

====

experiment: Rat pharmacokinetics; assay type: in vivo, SD rats; conditions: male, SD, plasma, po, ig
Below is a list of entries, each paired with its recorded half-life value.
Dear colleague, please return just the value in min, with no unit written.

// solved cases for half-life follow
Molecule	Assay result
CCOc1nn([C@@H](Cc2ccccc2)C(=O)Nc2ccc(C(=O)O)cc2)c(=O)cc1-c1cc(Cl)ccc1C(C)=O	81
COCCOc1nn([C@@H](Cc2ccccc2)C(=O)Nc2ccc(C(=O)O)cc2)c(=O)cc1-c1cc(Cl)ccc1C(C)=O	139
COc1nn([C@@H](Cc2ccccc2)C(=O)Nc2ccc(C(=O)O)cc2)c(=O)cc1-c1cc(Cl)ccc1C(C)=O	151

The measured half-life associated with O=C(O)c1ccc(NC(=O)[C@H](Cc2ccccc2)n2cnc(-c3cc(Cl)ccc3-n3cc(Cl)nn3)cc2=O)cc1 [Compound A, reference compound] reads 75.6

GET /value?item= "CC(=O)c1ccc(Cl)cc1-c1cc(=O)n([C@@H](Cc2ccccc2)C(=O)Nc2ccc(C(=O)O)cc2)nc1OC(F)F" &field=half-life returns 158

half-life in this record for "CC(=O)c1ccc(Cl)cc1-c1cc(=O)n([C@@H](Cc2ccccc2)C(=O)Nc2ccc(C(=O)O)cc2)nc1OC1COC1" : 104

What the record says about "CCC(=O)c1ccc(Cl)cc1-c1cc(=O)n([C@@H](Cc2ccccc2)C(=O)Nc2ccc(C(=O)O)cc2)nc1OC" : half-life is 226

====

Experiment: Rat pharmacokinetics
Format: in vivo, SD rats
Settings: male, SD, plasma, iv
Source text: Example 53: Investigation of the Pharmacokinetic Characteristics of the Compounds of the Present Invention SD rats: male, 180-250 g, purchased from Guangdong Medical Laboratory Animal Center. […] After blood drug concentrations being detected by LC-MS, WinNonlin 6.1 software was used to calculate pharmacokinetic parameters by non-compartmental model method.
Recorded measurements of half-life, one per entry
Please answer using a numeric value trailed by its unit.

get_value(item= CC(=O)c1ccc(Cl)cc1-c1cc(=O)n([C@@H](Cc2ccccc2)C(=O)Nc2ccc(C(=O)O)cc2)nc1OC(F)F [Example 25] , readout=half-life) returns 48 min

Reported half-life of CCOc1nn([C@@H](Cc2ccccc2)C(=O)Nc2ccc(C(=O)O)cc2)c(=O)cc1-c1cc(Cl)ccc1C(C)=O [Example 16] : 40.6 min

Kindly note the recorded half-life for COc1nn([C@@H](Cc2ccccc2)C(=O)Nc2ccc3[nH]c(C(=O)O)cc3c2)c(=O)cc1-c1cc(Cl)ccc1C(C)=O [Example 15] , which is 28 min
